targetSystem: Ghrelin receptor (Homo sapiens)
measurementDescription: Receptor Selection and Amplification Technology (R-SAT) assay
Assay type: cell-based
Parameters: expressed in transfected cells; host or cells: NIH3T3
assaySetup: percent inhibition at saturating ligand, normalized to reference ligand Substance P analog = 100%; read-out: RSAT Eff(%)
endpoint: Emax (%)
The reply should contain only the number, in %.

compound	unitAbbreviation	Emax
O=C(c1cn(CCCN2CCN(CCOc3ccccc3)CC2)c2ncccc12)C(F)(F)F	%	27

Result for CC(=O)CCc1cn(CCCN2CCN(C(C)c3ccccc3)CC2)c2ccccc12 (stereo not shown) , tested on Ghrelin receptor (Homo sapiens), Emax: 46

Result for `O=C(c1cn(CCCNCCOc2ccccc2)c2ncccc12)C(F)(F)F` , tested on Ghrelin receptor (Homo sapiens), Emax: 26

Result for COc1cccc2c(C(C)=O)cn(CC(C)CN3CCCN(Cc4ccccc4Cl)CC3)c12 (stereo not shown) , tested on Ghrelin receptor (Homo sapiens), Emax: 123

Result for `CC(=O)c1cn(CCCN2CCCN(Cc3ccc(F)cc3)CC2)c2c(Br)cccc12` , tested on Ghrelin receptor (Homo sapiens), Emax: 95

Result for CCCOC1CCN(CC(O)Cn2cc(C(C)=O)c3ccccc32)CC1 (stereo not shown) , tested on Ghrelin receptor (Homo sapiens), Emax: 18

Result for CC(=O)c1cn(CCCN2CCN(C(C)c3ccccc3)CC2)c2ccc(Br)cc12 (stereo not shown) , tested on Ghrelin receptor (Homo sapiens), Emax: 72

Result for COc1cccc2c(C#N)cn(CCCN3C4CCC3CC(Oc3ccc(F)cc3)C4)c12 (stereo not shown) , tested on Ghrelin receptor (Homo sapiens), Emax: 107

Result for COc1cccc2c(C(C)=O)cn(CC(C)CN3CCN(Cc4ccc(Cl)cc4Cl)CC3)c12 (stereo not shown) , tested on Ghrelin receptor (Homo sapiens), Emax: 78

Result for `CC(=O)c1cn(CCCN2CCN(CCOc3ccc(Cl)cc3)CC2)c2ncccc12` , tested on Ghrelin receptor (Homo sapiens), Emax: 62

###

Emax: recorded values
targetSystem: Ghrelin receptor (Homo sapiens, UniProt Q92847)
Sequence (Q92847 whole entry): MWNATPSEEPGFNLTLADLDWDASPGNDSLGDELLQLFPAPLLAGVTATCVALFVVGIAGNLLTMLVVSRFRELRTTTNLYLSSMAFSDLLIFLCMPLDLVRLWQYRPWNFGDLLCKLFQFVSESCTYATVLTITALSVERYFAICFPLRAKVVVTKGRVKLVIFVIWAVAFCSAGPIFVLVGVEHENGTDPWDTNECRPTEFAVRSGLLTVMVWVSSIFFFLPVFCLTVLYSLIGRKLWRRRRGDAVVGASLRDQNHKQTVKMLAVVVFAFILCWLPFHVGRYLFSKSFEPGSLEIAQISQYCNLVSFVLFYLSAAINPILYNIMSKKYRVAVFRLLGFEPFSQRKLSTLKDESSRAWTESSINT
measurementDescription: Receptor Selection and Amplification Technology (R-SAT) assay
Format: cell-based
Parameters: expressed in transfected cells; host or cells: NIH3T3
assaySetup: percent inhibition at saturating ligand, normalized to reference ligand Substance P analog = 100%; read-out: RSAT Eff(%)

As a guide, the following entries are already answered.
compound	endpoint	readoutValue
CC(=O)c1cn(CCCN2CCC(Oc3ccccc3Cl)CC2)c2ccccc12 [drawing 499]	Emax	105%
CC(=O)c1cn(CCCN2CCCN(CCc3ccccc3)CC2)c2c(C#N)cccc12	Emax	83%

Entry CC(=O)c1cn(CC(C)CN2C3CCC2CC(OCC2CC2)C3)c2ccccc12 (centres unmarked) — recorded Emax = 65%

Entry `O=C(c1cn(CCCN2CCC(Oc3ccc(F)cc3)CC2)c2ccccc12)C(F)(F)F` — recorded Emax = 75%

Entry CC(=O)c1cn(CCCN2C3CCC2CC(Oc2ccccc2Cl)C3)c2c(C#N)cccc12 (centres unmarked) — recorded Emax = 83%

###

targetSystem: Ghrelin receptor (Homo sapiens)
measurementDescription: Receptor Selection and Amplification Technology (R-SAT) assay
Assay type: cell-based
Set-up: expressed in transfected cells; host or cells: NIH3T3
assaySetup: percent inhibition at saturating ligand, normalized to reference ligand Substance P analog = 100%; read-out: RSAT Eff(%)
endpoint: Emax (%)
The reply should contain only the number, in %.

molecule	targetSystem	Emax (%)
CC(=O)c1c(C)n(CCCN2C3CCC2CC(CCc2ccc(Cl)cc2)C3)c2c(Br)cccc12 (centres unmarked)	Ghrelin receptor (Homo sapiens)	69
CC(C)CC(=O)c1cn(CCCN2C3CCC2CC(OCC2CC2)C3)c2ccccc12 (centres unmarked)	Ghrelin receptor (Homo sapiens)	129
CC(=O)c1cn(CCCN2C3CCC2CC(Oc2ccc(F)cc2)C3)c2c(C#N)cccc12 (centres unmarked)	Ghrelin receptor (Homo sapiens)	93
COc1cccc2c(C(C)=O)cn(CCCN3CCN(CC4CCCO4)CC3)c12 (centres unmarked)	Ghrelin receptor (Homo sapiens)	98
CCCCC(=O)c1cn(CCCN2CCC(OCCC)CC2)c2ccc(OC)cc12	Ghrelin receptor (Homo sapiens)	114
CC(=O)c1cn(CCCN2CCCN(Cc3ccccc3Cl)CC2)c2c(Br)cccc12	Ghrelin receptor (Homo sapiens)	95

Entry `CCC(=O)c1cn(CCCN2CCC(c3nc4ccccc4s3)CC2)c2ccccc12` — recorded Emax = 104

Entry `CCc1cccc2c(C(C)=O)cn(CCCN3CCC(Oc4cccc(Cl)c4)CC3)c12` — recorded Emax = 118

Entry `COc1ccc2c(c1)c(C(C)=O)cn2CCCN1CCC(Oc2ccccc2Cl)CC1` — recorded Emax = 95

Entry `COc1ccccc1C1CCN(CCCn2cc(C(=O)CC(C)C)c3ccccc32)CC1` — recorded Emax = 100

Entry `COc1ccc2[nH]c3c(c2c1)CCN(CCCn1cc(C(C)=O)c2ccccc21)C3` — recorded Emax = 76

Entry `CC(=O)c1cn(CCCN2CCC(c3nc(-c4ccncc4)no3)CC2)c2c(Cl)cccc12` — recorded Emax = 108

Entry `COc1cccc2c(C#N)cn(CCCN3CCC4(CC3)CC(=O)c3ccccc3O4)c12` — recorded Emax = 41

Entry `COc1ccc2c(c1)c(C(C)=O)cn2CCCN1CCC(C(=O)c2ccccc2)CC1` — recorded Emax = 72

Entry `CC(=O)c1c(C)n(CCCN2CCCN(Cc3ccccc3Cl)CC2)c2c(Br)cccc12` — recorded Emax = -14

Entry CCc1cccc2c(C(C)=O)cn(CCCN3CCCC(Cc4ccccc4Cl)C3)c12 (centres unmarked) — recorded Emax = 87

Entry CCCCC(=O)c1cn(CCCN2CCC3c4cc(OC)ccc4NC3C2)c2ccc(OC)cc12 (centres unmarked) — recorded Emax = 91

Entry `CC(=O)c1cn(CCCN2CCC(Oc3cccc(Cl)c3)CC2)c2c(Cl)cccc12` — recorded Emax = 83

Entry `CCc1cccc2c(C(C)=O)cn(CCCNC3Cc4ccccc4C3)c12` — recorded Emax = 98

Entry `CCCOC1CCN(CCCn2cc(C(=O)CC(C)C)c3ccccc32)CC1` — recorded Emax = 81

###

targetSystem: Ghrelin receptor (Homo sapiens)
measurementDescription: Receptor Selection and Amplification Technology (R-SAT) assay
Type: cell-based
Design: expressed in transfected cells; host or cells: NIH3T3
assaySetup: negative logarithm of ligand concentration causing 50% inhibition of constitutive receptor response; transfected NIH3T3 cells; '—' not defined (nd used separately); read-out: RSAT pIC50 (converted)
Values of IC50 strictly less than 200 nM map to Y, and values of at least 200 nM map to N.

molecule	targetSystem	classification
CC(=O)c1cn(CCCN2CCCN(Cc3ccccc3Cl)CC2)c2c(C#N)cccc12	Ghrelin receptor (Homo sapiens)	Y
CCCCC(=O)c1cn(CCCN2CCC(OCCC)CC2)c2ccc(OC)cc12	Ghrelin receptor (Homo sapiens)	Y
CCc1cccc2c(C(C)=O)cn(CCCN3CCN(Cc4ccc(Cl)cc4Cl)CC3)c12	Ghrelin receptor (Homo sapiens)	N
CCCCC1CCN(CCCn2cc(C(C)=O)c3ccc(OC)cc32)CC1	Ghrelin receptor (Homo sapiens)	N
COc1ccc2c(C(C)=O)cn(CCCN3CCC(Oc4ccc(Cl)cc4)CC3)c2c1	Ghrelin receptor (Homo sapiens)	N

Attention now turns to another entry.
Query block: Strictly below 200 nM: is that where IC50 of `COc1cccc2c(C(C)=O)cn(CCCN3CCC(Oc4ccccc4Cl)CC3)c12` sits?
Result block: Y

###

targetSystem: UniProtKB Q92847
measurementDescription: Receptor Selection and Amplification Technology (R-SAT) assay
Assay type: cell-based
Parameters: expressed in transfected cells; host or cells: NIH3T3
assaySetup: negative logarithm of ligand concentration causing 50% inhibition of constitutive receptor response; transfected NIH3T3 cells; '—' not defined (nd used separately); read-out: RSAT pIC50 (converted)
endpoint: IC50 (nM)
The reply should contain only the number, in nM.

Entry `CC(=O)c1cn(CCCN2CCN(Cc3ccc(Cl)cc3Cl)CC2)c2c(C)cccc12` — recorded IC50 = 158

Entry `COc1cccc2c(C(C)=O)cn(CCCN3CCC(O)(Cc4ccccc4)CC3)c12` — recorded IC50 = 126

Entry `CCOC(=O)C1CCN(CCCn2cc(C(C)=O)c3cccc(OC)c32)CC1` — recorded IC50 = 398

Entry `CCCCC1CCN(CCCn2cc(C(C)=O)c3cc(OC)ccc32)CC1` — recorded IC50 = 398

Entry `COc1ccccc1C1CCN(CCCn2cc(C(=O)NCC(C)C)c3cccc(OC)c32)CC1` — recorded IC50 = 25.1

Entry `CC(=O)c1cn(CCCN2CCC(c3nc(-c4ccncc4)no3)CC2)c2c(Cl)cccc12` — recorded IC50 = 251

Entry `O=C(c1cn(CCCN2CCC(O)(Cc3ccccc3)CC2)c2ccccc12)C(F)(F)F` — recorded IC50 = 3980

Entry CC(=O)c1cn(CC(C)CN2CCC(Cc3ccccc3)CC2)c2ccccc12 (stereo not drawn) — recorded IC50 = 3980

Entry COc1cccc2c(C(=O)NCC(C)C)cn(CCCN3C4CCC3CC(Oc3ccc(F)cc3)C4)c12 (stereo not drawn) — recorded IC50 = 79.4

Entry O=C(c1cn(CCCN2C3CCC2CC(Oc2ccc(Cl)cc2)C3)c2ccccc12)C(F)(F)F (stereo not drawn) — recorded IC50 = 251

Entry `CC(=O)c1cn(CCCN2CCCN(Cc3ccc(F)cc3)CC2)c2c(Br)cccc12` — recorded IC50 = 5.01

Entry `COc1ccc2c(c1)c(C(C)=O)cn2CCCN1CCC(c2ccccc2OC)CC1` — recorded IC50 = 2000
